test.target: TLR7 (Homo sapiens)
Sequence (Q9NYK1 27-1049): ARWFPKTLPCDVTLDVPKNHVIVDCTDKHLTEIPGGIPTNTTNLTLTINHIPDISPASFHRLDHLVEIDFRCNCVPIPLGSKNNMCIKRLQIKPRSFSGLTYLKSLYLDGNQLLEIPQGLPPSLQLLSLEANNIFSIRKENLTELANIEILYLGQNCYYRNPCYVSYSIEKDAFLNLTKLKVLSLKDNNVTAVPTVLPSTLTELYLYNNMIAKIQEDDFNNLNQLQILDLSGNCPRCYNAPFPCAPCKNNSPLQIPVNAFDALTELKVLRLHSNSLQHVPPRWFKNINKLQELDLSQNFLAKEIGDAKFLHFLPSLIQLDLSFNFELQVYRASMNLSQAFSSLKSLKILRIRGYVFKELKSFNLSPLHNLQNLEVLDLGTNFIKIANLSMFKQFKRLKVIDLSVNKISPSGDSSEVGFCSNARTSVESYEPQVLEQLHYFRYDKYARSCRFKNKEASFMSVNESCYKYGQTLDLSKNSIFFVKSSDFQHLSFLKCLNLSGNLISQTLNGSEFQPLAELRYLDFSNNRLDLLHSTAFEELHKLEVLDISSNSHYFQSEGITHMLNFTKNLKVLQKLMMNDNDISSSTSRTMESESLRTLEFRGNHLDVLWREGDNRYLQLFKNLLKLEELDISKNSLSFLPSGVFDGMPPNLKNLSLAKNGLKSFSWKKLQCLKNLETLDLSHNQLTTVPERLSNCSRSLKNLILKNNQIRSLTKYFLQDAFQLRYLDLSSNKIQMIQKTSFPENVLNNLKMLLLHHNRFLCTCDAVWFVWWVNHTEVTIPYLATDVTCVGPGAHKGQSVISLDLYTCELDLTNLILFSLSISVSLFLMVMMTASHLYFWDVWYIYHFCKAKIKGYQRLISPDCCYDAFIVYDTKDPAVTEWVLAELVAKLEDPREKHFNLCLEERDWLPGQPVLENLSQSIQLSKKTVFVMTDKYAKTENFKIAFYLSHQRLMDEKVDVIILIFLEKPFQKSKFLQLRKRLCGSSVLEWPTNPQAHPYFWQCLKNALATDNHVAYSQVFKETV
test.summary: HEK/293 TLR7 Cell Assay
stated.conditions: TLR7/NFKb HEK cells, R848 agonist 10 uM final concentration, Steady-Glo readout; read-out: TLR7 potency
Documented IC50 across a set of molecules

[
  {
    "molecule": "CN1CC[C@](F)(CNC(=O)[C@H]2CN(c3ccc(C#N)c4nccnc34)C[C@@H](C(F)(F)F)O2)C1 (single isomer, unassigned) [Example 357]",
    "readout.type": "IC50",
    "result": "< 75 nM"
  },
  {
    "molecule": "C[C@@H]1CN(c2ccc(C#N)c3ncncc23)C[C@H](CNC(=O)[C@@]2(F)CCNC2)O1 (single isomer, unassigned) [Example 344]",
    "readout.type": "IC50",
    "result": "< 75 nM"
  }
]

Let us examine a further case.
*Q* Quick one: IC50 of C[C@H]1C[C@@H](n2cccn2)CN(c2ccc(C(F)(F)F)c3nccnc23)C1 (racemic) [Example 155] ?
*A* > 150 nM

====

Documented pIC50 across a set of compounds
test.target: TLR7 (Homo sapiens)
test.summary: HEK/293 TLR7 Cell Assay
stated.conditions: TLR7/NFKb HEK cells, R848 agonist 10 uM final concentration, Steady-Glo readout; read-out: TLR7 potency
pIC50: −log10 of the molar value.

[
  {
    "compound": "C[C@H]1C[C@@H](OCCN2CCCCC2)CN(c2ccc(C#N)c3nccnc23)C1",
    "pIC50": "> 7.12"
  },
  {
    "compound": "N#Cc1ccc(N2C[C@@H](C(=O)NC[C@H](O)CO)O[C@@H](C(F)(F)F)C2)c2nccnc12 (single isomer, unassigned)",
    "pIC50": "< 6.82"
  },
  {
    "compound": "C[C@@H]1CN(c2ccc(C#N)c3nccnc23)C[C@H](C(=O)NC[C@H]2CN(C)CCO2)O1 (single isomer, unassigned)",
    "pIC50": "> 7.12"
  },
  {
    "compound": "N#Cc1ccc(N2C[C@H](N)CC(F)(F)C2)c2cccnc12 (single isomer, unassigned) [Example 197]",
    "pIC50": "> 7.12"
  },
  {
    "compound": "C[C@@H]1CN(c2ccc(C#N)c3nccnc23)C[C@H](C(=O)NC[C@H]2COCCN2)O1 (single isomer, unassigned)",
    "pIC50": "> 7.12"
  },
  {
    "compound": "COC[C@H](O)CNC(=O)[C@H]1CN(c2ccc(C#N)c3nccnc23)C[C@@H](C)O1 (single isomer, unassigned)",
    "pIC50": "6.82 to 7.12"
  }
]

Let us examine a further case.
*Q* Quick one: pIC50 of C[C@@H]1CN(c2ccc(C#N)c3ncncc23)C[C@H](CN2CCN(C)CC2)O1 ?
*A* > 7.12
